# System: NCI-H460
# MEASUREMENT_PROTOCOL: Proliferation assay (crystal violet), NCI-H460
# Type: cell-based
# STUDY_CONDITIONS: Homo sapiens, 96 h; NCI-H460, 4 days; read-out: Inhibition of proliferation IC50 NCI-H460
I'd be grateful if you could share measured pIC50 for these entries.
Give bare numbers, as −log10 of the molar value.

Guide cases for pIC50, answers given:
# COMPOUND, MEASURED_TARGET, pIC50
records = [
    ("Cc1nsc(Nc2cnc3cc(C(F)(F)F)ccc3n2)c1C(=O)Nc1ccc(Cl)c(F)c1 [Example 68]", "NCI-H460", 6.46),
    ("Cc1nsc(Nc2cnc(C(F)(F)F)cn2)c1C(=O)Nc1ccc(F)c(F)c1 [Example 81]", "NCI-H460", 6.62),
    ("Cc1nsc(Nc2cncc(-n3cccn3)n2)c1C(=O)Nc1ccc(Cl)c(F)c1 [Example 67]", "NCI-H460", 6.68),
]

Look at each compound and report its pIC50.
1. CCc1ccccc1NC(=O)c1c(C)nsc1Nc1cnc2cc(Cl)ccc2n1 [Example 86]
2. COc1ccc(NC(=O)c2c(C)nsc2Nc2cnc3cc(C(F)(F)F)ccc3n2)cn1 [Example 45]

Return:
6.77
7.00

###

# System: spindle assembly checkpoint
# MEASUREMENT_PROTOCOL: SAC-Formation - Nocodazole-Induced Assay
# Format: cell-based
# STUDY_CONDITIONS: Homo sapiens; HeLa cells, nocodazole 0.1 μg/ml, 24 h, phosphorylated histone H3 on serine 10
ATTRIBUTE_MEASURED: IC50 (nM)
One number for each entry, in nM.

Some entries whose results are on file:
# SMILES_REPRESENTATION, ATTRIBUTE_MEASURED, UNIT, MEASUREMENT
data = [
    ("COc1ccc(NC(=O)c2c(C)nsc2Nc2cnc3cc(Cl)ccc3n2)cn1", "IC50", "nM", 280),
    ("CNC(=O)c1cncc(Nc2snc(C)c2C(=O)Nc2ccc(F)c(F)c2)n1", "IC50", "nM", 99),
]

Lab note: each compound below needs its IC50 filled in.
1. CCc1ccccc1NC(=O)c1c(C)nsc1Nc1nccc2ccccc12
2. COc1ccc(NC(=O)c2c(C)nsc2Nc2cnc3cc(C(F)(F)F)ccc3n2)cn1
3. Cc1nsc(Nc2ccn3nccc3n2)c1C(=O)Nc1ccc(F)c(F)c1
4. COc1ccc(NC(=O)c2c(C)nsc2Nc2ccc(C#N)cn2)cn1
5. Cc1nsc(Nc2cnc3cc(F)ccc3n2)c1C(=O)Nc1ccc(F)c(F)c1

Return:
1: 17000; 2: 54; 3: 520; 4: 1300; 5: 61

Could you tell me IC50 for each of these compounds? They are listed below.
1. Cc1nsc(Nc2cnc3ccccc3n2)c1C(=O)Nc1ccc(OC2CCCCC2)nc1
2. CCOC(=O)c1sc(Nc2snc(C)c2C(=O)Nc2ccc(Cl)c(F)c2)nc1C
3. Cc1nsc(Nc2cnc(Br)cn2)c1C(=O)Nc1ccc(F)c(F)c1
4. CCc1ccccc1NC(=O)c1c(C)nsc1Nc1ncnc(C)c1C

Return:
90
260
18
15000

Batch lookup, IC50 per entry.
1. Cc1nsc(Nc2cc(C#N)ccn2)c1C(=O)Nc1ccc(OC2CCCCC2)nc1
2. CCc1ccccc1NC(=O)c1c(C)nsc1Nc1ccnc(C#N)n1
3. COc1ccc(NC(=O)c2c(C)nsc2Nc2cnc3cccc(C)c3n2)cn1
4. COc1ccc(Oc2ccc(NC(=O)c3c(C)nsc3Nc3cnc4ccccc4n3)cn2)cc1

Return:
1: 60; 2: 680; 3: 210; 4: 1600

###

What IC50 was measured for each of the following?
# Tested on: spindle assembly checkpoint
# MEASUREMENT_PROTOCOL: SAC-Formation - Nocodazole-Induced Assay
# Format: cell-based
# STUDY_CONDITIONS: Homo sapiens; HeLa cells, nocodazole 0.1 μg/ml, 24 h, phosphorylated histone H3 on serine 10

# example entries with known answers
# COMPOUND, MEASURED_TARGET, IC50
rows = [
    ("Cc1nsc(Nc2cnccn2)c1C(=O)Nc1ccc(Cl)c(F)c1 [Example 56]", "spindle assembly checkpoint", "0.067 µM"),
    ("CCc1ccccc1NC(=O)c1c(C)nsc1Nc1cccc(OC)n1 [Example 148]", "spindle assembly checkpoint", "> 20 µM"),
    ("Cc1nsc(Nc2cnc3cc(C(F)(F)F)ccc3n2)c1C(=O)Nc1ccc(Cl)c(Cl)c1 [Example 61]", "spindle assembly checkpoint", "0.31 µM"),
]

# per-item lookup of IC50; items listed below
1. Cc1nsc(Nc2cc(C#N)ccn2)c1C(=O)Nc1ccc(Oc2ccc(F)cc2F)nc1 [Example 114]
2. Cc1nsc(Nc2cnccn2)c1C(=O)Nc1ccc(OC2CCCCC2)nc1 [Example 163]

Return:
0.031 µM
1.3 µM

###

# Test system: HeLa
# MEASUREMENT_PROTOCOL: Proliferation assay (crystal violet), HeLa
# Format: cell-based
# STUDY_CONDITIONS: Homo sapiens, 96 h, 4 days, read-out: Inhibition of proliferation IC50 HeLa
ATTRIBUTE_MEASURED: pIC50
One number for each entry, as −log10 of the molar value.

Look over these answered cases.
# SMILES_REPRESENTATION, ATTRIBUTE_MEASURED, MEASUREMENT
measured = [
    ("COc1ccc(Oc2ccc(NC(=O)c3c(C)nsc3Nc3cc(C#N)ccn3)cn2)cc1", "pIC50", 5.49),
    ("COc1ccc(NC(=O)c2c(C)nsc2Nc2nc3ccc(F)cc3s2)cn1", "pIC50", 5.68),
]

Moving on to the next compound.
Entry CCc1ccccc1NC(=O)c1c(C)nsc1Nc1cc(C(F)(F)F)ccn1 , pIC50 reported as 5.12

###

# Tested on: HeLa
# MEASUREMENT_PROTOCOL: Proliferation assay (crystal violet), HeLa
# Format: cell-based
# STUDY_CONDITIONS: Homo sapiens, 96 h, 4 days, read-out: Inhibition of proliferation IC50 HeLa
Could you please mark Criterion met for values of IC50 below 1000 nM and Criterion not met for values at or above it?

# MOLECULE, LABEL
data = [
    ("COc1ccc(NC(=O)c2c(C)nsc2Nc2cnc3c(F)c(F)ccc3n2)cn1 [Example 43]", "Criterion met"),
]

Enquiry: IC50 under 1000 nM? Item: Cc1nsc(Nc2cc(C#N)ccn2)c1C(=O)Nc1ccc(Oc2ccccc2)nc1 [Example 111]
Return: Criterion not met

###

Provide the reported log10 IC50 of each item.
# System: spindle assembly checkpoint
# MEASUREMENT_PROTOCOL: SAC-Formation - Nocodazole-Induced Assay
# Type: cell-based
# STUDY_CONDITIONS: Homo sapiens; HeLa cells, nocodazole 0.1 μg/ml, 24 h, phosphorylated histone H3 on serine 10
Log10 applied to IC50; unit prior to transform: µM.

Known results for compounds:
# COMPOUND, log10 IC50
rows = [
    ("COc1ncc(NC(=O)c2c(C)nsc2Nc2ccc(C#N)cn2)cc1C [Example 120]", -0.57),
    ("CCc1ccccc1NC(=O)c1c(C)nsc1Nc1nc(C(=O)OC)co1 [Example 91]", 0.62),
    ("COc1ccc(NC(=O)c2c(C)nsc2Nc2nc3cnccc3s2)cn1 [Example 129]", 1.15),
    ("CCc1ccccc1NC(=O)c1c(C)nsc1Nc1nccc(-c2ccccc2)n1 [Example 5]", 0.08),
    ("CCNC(=O)c1csc(Nc2snc(C)c2C(=O)Nc2ccc(F)c(F)c2)n1 [Example 99]", 1.30),
]

Quick batch: log10 IC50 for everything below.
1. CCc1ccccc1NC(=O)c1c(C)nsc1Nc1cc(C(F)(F)F)ccn1 [Example 18]
2. CCc1cnc(Nc2snc(C)c2C(=O)Nc2ccc(F)c(F)c2)cn1 [Example 79]
3. CCc1ccccc1NC(=O)c1c(C)nsc1Nc1ccc(C#N)cn1 [Example 7]
4. COc1ccc(NC(=O)c2c(C)nsc2Nc2nc3ccc(F)cc3s2)cn1 [Example 88]

Return:
-0.82
-0.85
-0.08
-0.09

# per-item lookup of log10 IC50; items listed below
1. COc1ccc(NC(=O)c2c(C)nsc2Nc2ncc(C(=O)N3CCOCC3)s2)cc1F [Example 93]
2. CCc1ccccc1NC(=O)c1c(C)nsc1Nc1cnc(C(N)=O)cn1 [Example 161]
3. Cc1nsc(Nc2nc(C(=O)N(C)C)cs2)c1C(=O)Nc1ccc(F)c(F)c1 [Example 131]

Return:
1: 0.15; 2: 1.18; 3: 1.04

Report log10 IC50 for every entry below.
1. COC(=O)c1cncc(Nc2snc(C)c2C(=O)Nc2ccc(OC)nc2)n1 [Example 101]
2. CCc1ccccc1NC(=O)c1c(C)nsc1Nc1nc2ccccc2s1 [Example 14]
3. CCOC(=O)c1cnc(Nc2snc(C)c2C(=O)Nc2ccc(OC)nc2)o1 [Example 150]
4. Cc1nsc(Nc2nc3c(C(F)(F)F)ccnc3s2)c1C(=O)Nc1ccc(Cl)c(F)c1 [Example 103]

Return:
1: 0.26; 2: -0.46; 3: 1.20; 4: -0.62
